Data origin, for the record: ChEMBL document CHEMBL4390648

Answer each item with its documented inhibition at 500 µg/mL.
System: Tobacco mosaic virus
Experiment: Antiviral activity against Tobacco mosaic virus inoculated in Nicotiana tabacum leaves assessed as passivation by measuring local lesion numbers at 500 mg/l pre-incubated with virus for 30 mins followed by inoculation and measured up to 4 days
Format: functional
Numbers only, in %.

Please review the entries below; each comes with its answer.
| INPUT_SMILES | inhibition at 500 µg/mL [%] |
| --- | --- |
| COc1nc(OC)nc(Sc2ccc(C#N)cc2Br)n1 | 0 |
| COc1nc(OC)nc(Oc2cccc(Br)c2)n1 | 19.5 |
| COc1nc(OC)nc(Sc2ccc(C(=O)O)cc2F)n1 | 0 |
| COc1nc(OC)nc(Sc2cccc(Cl)c2C#N)n1 | 0 |
| COc1nc(OC)nc(Sc2ccc(C(=O)O)cc2Cl)n1 | 0 |
| COc1cc(OC)nc(Sc2ccc(Br)cc2C(=O)O)n1 | 0 |

I would be grateful if you could share the reported inhibition at 500 µg/mL for `COc1cc(OC)nc(Sc2ccc(F)cc2C(=O)O)n1` .
47

----------
System: Candida albicans
Assay: Inhibition of Candida albicans AHAS catalytic subunit at 10 uM using pyruvate as substrate measured after 30 mins by colorimetric method relative to control
PARAMETER_MEASURED: inhibition
Write the numeric value and append its unit.

Please review the entries below; each comes with its answer.
| INPUT_SMILES | ASSAY_RESULT |
| --- | --- |
| COc1nc(OC)nc(Sc2cc(Cl)ccc2C#N)n1 | 0% |
| COc1nc(OC)nc(Sc2ccc(C#N)cc2C(F)(F)F)n1 | 10.5% |
| COc1cc(OC)nc(Sc2ccc(C(=O)O)c(C(F)(F)F)c2)n1 | 2.1% |
| COc1cc(OC)nc(Sc2ccc(Br)cc2C(=O)O)n1 | 50.5% |
| COc1nc(OC)nc(Sc2cccc(I)c2C#N)n1 | 45.4% |
| CCOc1ccccc1OS(=O)(=O)NC(=O)Nc1nc(OC)cc(OC)n1 | 96.8% |

# return inhibition for each item in the list
1. COc1cc(OC)nc(Sc2ccc(Cl)cc2C(=O)O)n1
2. COc1cc(OC)nc(Sc2cc(C(F)(F)F)ccc2C#N)n1
3. COc1cc(OC)nc(Sc2ccc(C(=O)O)cc2Br)n1
4. COc1cc(OC)nc(Sc2ccc(C(=O)O)cc2F)n1

80.6%
7.9%
70.7%
81.7%

# return inhibition for each item in the list
1. COc1nc(OC)nc(Sc2ccc(C(=O)O)cc2C(=O)O)n1
2. COc1nc(OC)nc(Sc2cccc(Cl)c2C#N)n1

15.6%
38.9%

----------
Tested on: Mythimna separata
Assay: Insecticidal activity against Mythimna separata assessed as larval mortality at 600 mg/l by leaf-dip method
Format: functional
Label Fulfilled for high-side mortality at 600 µg/mL (at or above 30%) and Not fulfilled for low-side mortality at 600 µg/mL (below it).

| INPUT_SMILES | CAT |
| --- | --- |
| COc1cc(OC)nc(Sc2ccc(Br)cc2C(=O)O)n1 | Fulfilled |
| COc1nc(OC)nc(Sc2ccc(Br)cc2C#N)n1 | Not fulfilled |
| COc1nc(OC)nc(Sc2ccc(C(=O)O)c(C(F)(F)F)c2)n1 | Fulfilled |
| COc1nc(OC)nc(Sc2ccc(C#N)cc2F)n1 | Not fulfilled |
| COc1cc(OC)nc(Sc2cc(C(F)(F)F)ccc2C#N)n1 | Fulfilled |

Reported mortality at 600 µg/mL reaches at least 30% for `COc1nc(OC)nc(Sc2cccc(F)c2C#N)n1` ?
Not fulfilled

Reported mortality at 600 µg/mL reaches at least 30% for `COc1nc(OC)nc(Sc2ccc(F)cc2C#N)n1` ?
Not fulfilled

Reported mortality at 600 µg/mL reaches at least 30% for `COc1nc(OC)nc(Sc2cc(Cl)ccc2C#N)n1` ?
Not fulfilled

----------
Answer each item with its documented inhibition.
Tested on: Arabidopsis thaliana
Assay: Inhibition of Arabidopsis thaliana AHAS catalytic subunit using pyruvate as substrate at 100 uM measured after 30 mins by colorimetric method relative to control
One number for each entry, in %.

Please review the entries below; each comes with its answer.
| COMPOUND | STUDY_TARGET | inhibition / % |
| --- | --- | --- |
| COc1nc(OC)nc(Sc2ccc(C(=O)O)cc2C(=O)O)n1 | Arabidopsis thaliana | 81.7 |
| COc1nc(OC)nc(Sc2ccc(C#N)cc2Cl)n1 | Arabidopsis thaliana | 89.6 |
| COc1nc(OC)nc(Sc2cccc(Cl)c2C#N)n1 | Arabidopsis thaliana | 79.3 |

# return inhibition for each item in the list
1. COc1nc(OC)nc(Sc2ccc(Br)cc2C#N)n1
2. COc1nc(OC)nc(Sc2ccc(C#N)cc2F)n1
3. COc1nc(OC)nc(Sc2cccc(F)c2C#N)n1

85.5
63.3
86.5

# return inhibition for each item in the list
1. COc1cc(OC)nc(Sc2ccc(Br)cc2C(=O)O)n1
2. COc1nc(OC)nc(Sc2ccc(Cl)cc2C(=O)O)n1
3. COc1cc(OC)nc(Sc2ccc(C(F)(F)F)cc2C#N)n1
4. COc1nc(OC)nc(Sc2ccc(Br)cc2C(=O)O)n1

[100, 59.6, 72.3, 19]

----------
Tested on: Sclerotinia sclerotiorum
Test: Antifungal activity against Sclerotinia sclerotiorum assessed as reduction in growth at 50 mg/l by mycelium growth rate method relative to control
Format: functional
Answer each item with its documented inhibition at 50 µg/mL.
Write the numeric value and append its unit.

| INPUT_SMILES | PARAMETER_MEASURED | ASSAY_RESULT |
| --- | --- | --- |
| COc1nc(OC)nc(Sc2cccc(F)c2C#N)n1 | inhibition at 50 µg/mL | 63.9% |
| COc1nc(OC)nc(Sc2ccc(C(=O)O)c(C(F)(F)F)c2)n1 | inhibition at 50 µg/mL | 75% |

Now for a further compound.
Tell me reported inhibition at 50 µg/mL for `COc1cc(OC)nc(Sc2ccc(C(=O)O)c(C(F)(F)F)c2)n1` , tested with Sclerotinia sclerotiorum.
75%

----------
Tested on: Arabidopsis thaliana
Experiment: Inhibition of Arabidopsis thaliana AHAS catalytic subunit using pyruvate as substrate at 100 uM measured after 30 mins by colorimetric method relative to control
PARAMETER_MEASURED: inhibition (%)
Give bare numbers, in %.

Please review the entries below; each comes with its answer.
| INPUT_SMILES | STUDY_TARGET | PARAMETER_MEASURED | ASSAY_RESULT |
| --- | --- | --- | --- |
| COc1nc(OC)nc(Sc2cccc(Br)c2C#N)n1 | Arabidopsis thaliana | inhibition | 74.7 |
| COc1nc(OC)nc(Sc2cc(Cl)ccc2C#N)n1 | Arabidopsis thaliana | inhibition | 100 |
| COc1nc(OC)nc(Sc2ccc(C(=O)O)cc2Cl)n1 | Arabidopsis thaliana | inhibition | 15.3 |

# return inhibition for each item in the list
1. COc1nc(OC)nc(Sc2ccc(C(=O)O)c(C(F)(F)F)c2)n1
2. COc1nc(OC)nc(Sc2ccc(C#N)cc2C(F)(F)F)n1
3. COc1cc(OC)nc(Sc2ccc(C(=O)O)cc2F)n1
4. COc1nc(OC)nc(Sc2ccc(C(F)(F)F)cc2C#N)n1
5. COc1nc(OC)nc(Sc2ccc(F)cc2C(=O)O)n1
6. COc1nc(OC)nc(Sc2cccc(I)c2C#N)n1

75.5
10
100
15
68.6
66.7

# return inhibition for each item in the list
1. COc1cc(OC)nc(Sc2ccc(C(=O)O)cc2Br)n1
2. COc1cc(OC)nc(Sc2ccc(F)cc2C(=O)O)n1

[100, 100]

----------
Test system: Severe acute respiratory syndrome-related coronavirus
Experiment: Inhibition of SARS coronavirus M protease using AVLQSGFRKK as substrate at 20 uM by FRET assay relative to control
Label TRUE for high-side inhibition (at or above 30%) and FALSE for low-side inhibition (below it).

Reported inhibition reaches at least 30% for `COc1cc(OC)nc(Sc2ccc(C(=O)O)c(C(F)(F)F)c2)n1` ?
FALSE

Reported inhibition reaches at least 30% for `COc1nc(OC)nc(Sc2ccc(C#N)cc2F)n1` ?
TRUE

Reported inhibition reaches at least 30% for `COc1nc(OC)nc(Sc2ccc(Cl)cc2C(=O)O)n1` ?
FALSE

Reported inhibition reaches at least 30% for `COc1nc(OC)nc(Sc2ccc(Br)cc2C#N)n1` ?
TRUE

Reported inhibition reaches at least 30% for `COc1nc(OC)nc(Sc2cccc(I)c2C#N)n1` ?
TRUE

----------
Test system: Severe acute respiratory syndrome-related coronavirus
Experiment: Inhibition of SARS coronavirus M protease using AVLQSGFRKK as substrate at 20 uM by FRET assay relative to control
PARAMETER_MEASURED: inhibition (%)
Answers are plain numbers, in %.

Please review the entries below; each comes with its answer.
| INPUT_SMILES | UNIT_OF_MEASURE | inhibition |
| --- | --- | --- |
| COc1nc(OC)nc(Sc2cccc(Cl)c2C#N)n1 | % | 76.6 |
| COc1nc(OC)nc(Sc2ccc(C(=O)O)c(C(F)(F)F)c2)n1 | % | 22.2 |
| COc1cc(OC)nc(Sc2ccc(C(=O)O)cc2C(=O)O)n1 | % | 0 |
| COc1nc(OC)nc(Sc2cccc(Br)c2C#N)n1 | % | 96.3 |
| COc1nc(OC)nc(Sc2ccc(C#N)cc2Cl)n1 | % | 12.8 |

# return inhibition for each item in the list
1. COc1nc(OC)nc(Sc2ccc(F)cc2C(=O)O)n1
2. COc1nc(OC)nc(Sc2ccc(C(=O)O)cc2Br)n1
3. COc1nc(OC)nc(Sc2ccc(C#N)cc2Br)n1
4. COc1cc(OC)nc(Sc2cc(C(F)(F)F)ccc2C(=O)O)n1
5. COc1cc(OC)nc(Sc2ccc(C(F)(F)F)cc2C#N)n1
6. COc1nc(OC)nc(Sc2ccc(C#N)cc2C(F)(F)F)n1

94.5
25
39.3
0
0
18

# return inhibition for each item in the list
1. COc1nc(OC)nc(Sc2ccc(C(=O)O)cc2F)n1
2. COc1nc(OC)nc(Oc2cccc(Br)c2)n1
3. COc1cc(OC)nc(Sc2ccc(C(=O)O)cc2Cl)n1
4. COc1cc(OC)nc(Sc2ccc(Br)cc2C(=O)O)n1

[89.5, 0, 0, 0]

I would be grateful if you could share the reported inhibition for `COc1nc(OC)nc(Sc2ccc(C(F)(F)F)cc2C#N)n1` .
0
